Listed compounds paired with reported melting point

Record excerpt, results attached:
> print(dat)
                              smiles.string   readout.name    measurement
1  Cc1cn(-c2cc(NC(=O)c3cccc4cc(Oc5ccnc(NC(=O)C(C)(C)C)c5)ccc34)cc(C(F)(F)F)c2)cn1  melting point       > 120 °C
2  Cc1cn(-c2cc(NC(=O)c3cccc4cc(Oc5ccnc(Nc6nccs6)c5)ccc34)cc(C(F)(F)F)c2)cn1  melting point  277 to 282 °C
3  Cc1cn(-c2cc(NC(=O)c3cccc4cc(Oc5ccnc(NC(=O)C6CC6)c5)ccc34)cc(C(F)(F)F)c2)cn1  melting point  242 to 244 °C
4  Cc1cn(-c2cc(NC(=O)c3cccc4cc(Oc5ccnc(NC(=O)N(C)C)c5)ccc34)cc(C(F)(F)F)c2)cn1  melting point       > 138 °C

We next turn to a different compound, shown below.
Looking up `Cc1cn(-c2cc(NC(=O)c3cccc4cc(Oc5cc(NC(=O)C6CC6)ncn5)ccc34)cc(C(F)(F)F)c2)cn1` , I see its melting point listed as 216 to 220 °C

The measurements presented in this section are drawn from patent US8217045B2.
